The reported measurements were obtained from patent US12122761B2.

Measurement Target: human cloned CHRM4 receptor (M4_CHO cells) (Homo sapiens)
Construct: expressed in transfected cells; host or cells: CHO-K1
Protocol Details: CHRM4 Ca++ Flux Assay (agonist mode, FDSS 7000EX)
Type: cell-based
Applied Conditions: geometric mean if tested more than once, read-out: M4 FDSS EC50
pEC50: −log10 of the molar value.
Measurement Type: pEC50

>>> reported_result("O=C(C1COC1)N1CC2(CC[C@@H](N3CCC(c4ccccc4OCCOC(F)(F)F)CC3)C2)C1")
7.57
>>> reported_result("COc1ccccc1C1CCN([C@@H]2CCC3(C2)CN(c2cc(Cl)nnc2Cl)C3)CC1")
6.88
>>> reported_result("CC(C)(O)COc1ccccc1C1CCN([C@@H]2CCC3(C2)CN(c2nncs2)C3)CC1")
8.15
>>> reported_result("O=C(C1COC1)N1CC2(CC[C@@H](N3CCC(c4ccccc4OCCOC4COC4)CC3)C2)C1")
8.22

---

Measurement Target: human cloned CHRM4 receptor (M4_CHO cells) (Homo sapiens, UniProt P08173)
Construct: expressed in transfected cells; host or cells: CHO-K1
Sequence (P08173 whole entry): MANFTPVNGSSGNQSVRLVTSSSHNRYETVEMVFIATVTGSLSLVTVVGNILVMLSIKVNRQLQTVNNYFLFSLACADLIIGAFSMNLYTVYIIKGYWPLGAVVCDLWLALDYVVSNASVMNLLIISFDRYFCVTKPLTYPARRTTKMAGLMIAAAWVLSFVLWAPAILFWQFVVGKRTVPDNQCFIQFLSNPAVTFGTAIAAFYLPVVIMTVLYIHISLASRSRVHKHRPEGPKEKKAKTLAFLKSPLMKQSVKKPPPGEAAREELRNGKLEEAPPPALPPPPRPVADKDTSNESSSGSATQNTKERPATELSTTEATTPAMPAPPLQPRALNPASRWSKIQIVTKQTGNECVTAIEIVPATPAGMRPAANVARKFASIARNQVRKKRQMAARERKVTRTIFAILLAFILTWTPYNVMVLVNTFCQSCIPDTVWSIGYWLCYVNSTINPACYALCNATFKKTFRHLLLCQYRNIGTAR
Protocol Details: CHRM4 Ca++ Flux Assay (agonist mode, FDSS 7000EX)
Assay type: cell-based
Applied Conditions: geometric mean if tested more than once, read-out: M4 FDSS EC50
pEC50: −log10 of the molar value.
Reported pEC50 values follow for various compounds
Measurement Type: pEC50

>>> reported_result("O=C(N1CC2(CC[C@@H](N3CCC(c4cc(F)ccc4C4(O)CCOCC4)CC3)C2)C1)C1(F)CC1 (single isomer, unassigned) [Example 9J]")
6.62
>>> reported_result("O=C(N1CC2(CC[C@@H](N3CCC(c4ccccc4OCC4CCOCC4)CC3)C2)C1)C1(F)CC1 (single isomer, unassigned) [Example 7Q]")
8.52
>>> reported_result("O=C(N1CC2(CC[C@H](N3CCC(c4ccccc4C4CCOCC4)CC3)C2)C1)C1(F)CC1 (single isomer, unassigned) [Example 9M]")
7.00
>>> reported_result("O=C(C1COC1)N1CC2(CC[C@@H](N3CCC(c4ccccc4OCC4CC4)CC3)C2)C1 [Example 7I]")
8.15
>>> reported_result("Cc1nnc(COc2ccccc2C2CCN([C@@H]3CCC4(C3)CN(C(=O)C3(F)CC3)C4)CC2)o1 (single isomer, unassigned) [Example 7Y]")
7.66
>>> reported_result("Fc1cccc(C2CCN([C@@H]3CCC4(C3)CN(c3nncs3)C4)CC2)c1OC1COC1 [Example 3E]")
8.52
>>> reported_result("O=C(N1CC2(CC[C@@H](N3CCC(c4ccccc4OC4CC5(COC5)C4)CC3)C2)C1)C1(F)CC1 (single isomer, unassigned) [Example 11D]")
7.01
>>> reported_result("c1ccc(C2CCN([C@@H]3CCC4(C3)CN(c3nnco3)C4)CC2)c(C2CCOCC2)c1 [Example 2H]")
8.52
>>> reported_result("c1ccc(C2CCN([C@@H]3CCC4(C3)CN(c3cncnc3)C4)CC2)c(OCC2CCOCC2)c1 [Example 1M]")
8.52
>>> reported_result("Cc1nccnc1N1CC2(CC[C@@H](N3CCC(c4ccccc4OCC(C)(C)O)CC3)C2)C1 [Example 5T]")
7.20
>>> reported_result("O=C(N1CC2(CC[C@@H](N3CCC(c4cc(F)ccc4C4CCOCC4)CC3)C2)C1)C1(F)CC1 (single isomer, unassigned) [Example 9L]")
7.59
>>> reported_result("CC(C)COc1ccccc1C1CCN([C@@H]2CCC3(C2)CN(C(=O)C2COC2)C3)CC1 [Example 7F]")
7.85
>>> reported_result("c1ccc(C2CCN([C@@H]3CCC4(C3)CN(c3nnco3)C4)CC2)c(CC2CCOCC2)c1 [Example 2L]")
7.96
>>> reported_result("O=C(N1CC2(CC[C@@H](N3CCC(c4cc(F)ccc4C4CCOCC4)CC3)C2)C1)C1(F)CC1 (single isomer, unassigned) [Example 9K]")
9.00
